molecular target: Human HER3, endogenous, on human cancer cell lines (SK-Br-3, MCF7, BT-474) (human, UniProt P21860 20-1342); assay: cell-based or functional assay
Sequence (P21860 20-1342): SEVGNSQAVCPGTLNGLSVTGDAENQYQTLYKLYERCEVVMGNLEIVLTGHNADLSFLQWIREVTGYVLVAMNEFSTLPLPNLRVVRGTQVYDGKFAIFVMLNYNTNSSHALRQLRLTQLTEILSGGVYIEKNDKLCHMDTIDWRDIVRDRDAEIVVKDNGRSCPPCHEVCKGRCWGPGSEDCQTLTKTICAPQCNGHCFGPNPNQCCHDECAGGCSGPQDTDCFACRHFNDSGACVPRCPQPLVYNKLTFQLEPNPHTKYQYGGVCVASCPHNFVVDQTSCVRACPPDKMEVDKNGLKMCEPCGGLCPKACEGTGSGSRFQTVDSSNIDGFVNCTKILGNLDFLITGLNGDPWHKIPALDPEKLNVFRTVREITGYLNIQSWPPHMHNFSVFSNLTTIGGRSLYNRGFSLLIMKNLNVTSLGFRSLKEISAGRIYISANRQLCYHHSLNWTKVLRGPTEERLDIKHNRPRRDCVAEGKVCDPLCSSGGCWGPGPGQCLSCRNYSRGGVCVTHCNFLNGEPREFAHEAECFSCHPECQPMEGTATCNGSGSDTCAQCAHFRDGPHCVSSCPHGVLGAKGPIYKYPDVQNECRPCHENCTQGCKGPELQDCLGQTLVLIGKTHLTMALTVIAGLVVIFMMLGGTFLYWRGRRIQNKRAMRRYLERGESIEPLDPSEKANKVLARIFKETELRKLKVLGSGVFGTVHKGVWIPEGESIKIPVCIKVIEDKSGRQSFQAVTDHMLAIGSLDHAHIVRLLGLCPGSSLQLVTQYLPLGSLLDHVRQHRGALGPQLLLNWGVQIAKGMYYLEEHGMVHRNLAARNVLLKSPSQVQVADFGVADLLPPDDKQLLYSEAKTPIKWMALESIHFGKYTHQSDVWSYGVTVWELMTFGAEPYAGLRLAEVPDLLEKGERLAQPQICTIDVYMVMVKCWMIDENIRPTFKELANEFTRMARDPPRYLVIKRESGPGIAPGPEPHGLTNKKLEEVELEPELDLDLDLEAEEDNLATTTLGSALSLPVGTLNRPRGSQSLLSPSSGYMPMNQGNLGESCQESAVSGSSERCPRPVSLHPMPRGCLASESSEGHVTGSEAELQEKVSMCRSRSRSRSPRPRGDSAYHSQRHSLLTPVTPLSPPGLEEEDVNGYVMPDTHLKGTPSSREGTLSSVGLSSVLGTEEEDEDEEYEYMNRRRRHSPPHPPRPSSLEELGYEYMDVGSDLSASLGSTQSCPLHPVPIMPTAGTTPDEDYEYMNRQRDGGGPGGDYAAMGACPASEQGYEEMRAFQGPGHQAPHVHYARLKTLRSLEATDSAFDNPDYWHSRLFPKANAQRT
parameter: SK-Br-3 pAkt (S473) IC50 (pM)
State the answer as a number, implicitly in pM.

binder: MOR13762 (antibody, human IgG1, kappa, V domains shown, tested as IgG) VH: QVQLVQSGAEVKKPGESLKISCKGSGYSFTNTWVAWVRQMPGKGLEWMGIIYPGQSDTIYSPSFQGQVTISADKSISTAYLQWSSLKASDTAMYYCARVHIIQPPSAWSYNAMDVWGQGTLVTVSS VL: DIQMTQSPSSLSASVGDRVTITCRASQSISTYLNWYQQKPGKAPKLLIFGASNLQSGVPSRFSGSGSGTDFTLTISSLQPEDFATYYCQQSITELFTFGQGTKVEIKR
valueMeasured: 63
--
binder: MOR13750 (antibody, human IgG1, kappa, V domains shown, tested as IgG) VH: QVQLVQSGAEVKKPGESLKISCKGSGYSFTSSWVAWVRQMPGKGLEWMGIIYPGGSDTIYSPSFQGQVTISADKSISTAYLQWSSLKASDTAMYYCARVHIIQPPSAWSYNAMDVWGQGTLVTVSS VL: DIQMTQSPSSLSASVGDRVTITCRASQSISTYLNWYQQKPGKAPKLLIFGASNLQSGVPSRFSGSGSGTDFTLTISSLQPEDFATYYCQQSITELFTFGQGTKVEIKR
valueMeasured: 1640
--
binder: MOR13754 (antibody, human IgG1, kappa, V domains shown, tested as IgG) VH: QVQLVQSGAEVKKPGESLKISCKGSGYSFTSYWVAWVRQMPGKGLEWMGIIYPGGSDTIYSPSFQGQVTISADKSISTAYLQWSSLKASDTAMYYCARVHIIQPPSAWSYNAMDVWGQGTLVTVSS VL: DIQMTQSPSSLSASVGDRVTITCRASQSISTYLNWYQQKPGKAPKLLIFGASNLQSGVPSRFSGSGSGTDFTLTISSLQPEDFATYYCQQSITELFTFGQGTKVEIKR
valueMeasured: 465
--
binder: MOR13871 (antibody, human IgG1, kappa, V domains shown, tested as IgG) VH: QVQLVQSGAEVKKPGESLKISCKGSGYSFSNYWIAWVRQMPGKGLEWMGIIYPGSSDTIYSPSFQGQVTISADKSISTAYLQWSSLKASDTAMYYCARVHIIQPPSAWSYNAMDVWGQGTLVTVSS VL: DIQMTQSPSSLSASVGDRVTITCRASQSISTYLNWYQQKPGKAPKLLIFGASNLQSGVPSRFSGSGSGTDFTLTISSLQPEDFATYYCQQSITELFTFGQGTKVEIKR
valueMeasured: 97

Now, please, on to the next binder.
Identify measured SK-Br-3 pAkt (S473) IC50 corresponding to MOR12925 (antibody, human IgG1, kappa, V domains shown, tested as IgG) VH: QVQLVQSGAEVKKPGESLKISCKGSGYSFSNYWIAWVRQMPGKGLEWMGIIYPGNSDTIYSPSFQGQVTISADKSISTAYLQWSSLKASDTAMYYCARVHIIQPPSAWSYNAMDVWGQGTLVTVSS VL: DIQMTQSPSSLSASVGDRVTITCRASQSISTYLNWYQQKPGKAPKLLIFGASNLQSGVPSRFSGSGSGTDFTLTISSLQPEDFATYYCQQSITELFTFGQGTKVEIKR
93
